Molecular target: T1, PF4/heparin complex (human PF4 complexed with heparin) (human, UniProt P02776 32-101)
T1 sequence: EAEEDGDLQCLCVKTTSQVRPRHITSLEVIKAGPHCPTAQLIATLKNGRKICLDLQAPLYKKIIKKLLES
Experiment: cell-based or functional assay
measured-attribute: % inhibition of 14C-serotonin release (SRA), HIT-Positive Patient #3 serum, scFv 75 µg/mL

Prompt line: So what's the measured % inhibition of 14C-serotonin release (SRA), HIT-Positive Patient #3 serum, scFv 75 µg/mL for this one? Mutant D scFv, scFv(Y156H) (scFv, VL-linker-VH; histidine-tagged, from E. coli BL21; also called Mut D; not shown: histidine tag from the pADL-22c vector) scFv: DIQMIQSQKFMSTSVGDRVTVTCKASQNVGTNVAWYQQKPGQSPNALIYSASYRYSGVPDRFTGSGSGTDFTLTITNVQSEDLADYFCQQYNSYPLTFGTGTKLDLKGGGGSGGGGSGGGGSVQLQQSGAELVKPGASVKLSCKASGYTFTNYFIHWVKQRPGQGLEWIGEINPRNGDTDFNEKFESRATLTVDKSSSTAYMQLSSLTSEDSAIYYCTRSPYGNNYGFTYWGQGTLVTVSA
Response line: 36.1%
